Assayed Target: pY705-STAT3 in PBMC (Homo sapiens)
Construct: Cryopreserved Peripheral Blood Mononuclear Cells (PBMC) are from AllCells; host or cells: cryopreserved PBMC
Sequence (P40763 whole entry): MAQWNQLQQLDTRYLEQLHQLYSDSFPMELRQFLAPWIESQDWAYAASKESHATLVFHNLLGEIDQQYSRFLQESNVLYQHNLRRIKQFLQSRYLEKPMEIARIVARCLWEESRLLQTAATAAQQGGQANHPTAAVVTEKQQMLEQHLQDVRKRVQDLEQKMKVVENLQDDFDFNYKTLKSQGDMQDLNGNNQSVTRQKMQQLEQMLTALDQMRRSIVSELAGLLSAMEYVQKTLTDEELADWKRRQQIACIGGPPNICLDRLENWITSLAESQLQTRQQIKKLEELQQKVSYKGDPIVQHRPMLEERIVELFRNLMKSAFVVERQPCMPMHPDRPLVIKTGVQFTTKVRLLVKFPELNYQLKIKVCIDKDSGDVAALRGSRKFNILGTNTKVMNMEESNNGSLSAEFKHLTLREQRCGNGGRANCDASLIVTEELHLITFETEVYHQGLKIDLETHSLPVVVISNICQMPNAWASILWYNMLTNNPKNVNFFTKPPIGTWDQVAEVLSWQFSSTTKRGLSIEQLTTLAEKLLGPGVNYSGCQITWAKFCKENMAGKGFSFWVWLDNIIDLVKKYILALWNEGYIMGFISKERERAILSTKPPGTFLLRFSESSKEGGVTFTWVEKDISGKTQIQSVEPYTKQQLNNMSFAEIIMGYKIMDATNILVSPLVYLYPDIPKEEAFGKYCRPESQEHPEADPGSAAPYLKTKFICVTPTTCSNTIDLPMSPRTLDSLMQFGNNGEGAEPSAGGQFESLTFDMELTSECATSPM
Assay Explanation: MSD-pSTAT-PBMC Assay (pSTAT3, IL-6 stimulated)
Format: cell-based
Protocol Conditions: PBMC, compound 3 hrs, then 10 ng/mL IL-6 for 10 min; Table 1114; read-out: pSTAT3
pIC50: −log10 of the molar value.
Measure Name: pIC50

// known answers, use as guide
Molecule	pIC50
CC(C)CC(=O)SCCOP(=O)(OCCSC(=O)CC(C)C)C(F)(F)c1ccc2ccc(C(=O)N[C@H]3CCCC[C@H]4CC[C@@H](C(=O)N5C[C@@H](C#N)[C@H](c6cc[nH]c(=O)c6)C5)N4C3=O)cc2c1 (single isomer, unassigned) [Compound 168]	6.00 to 7.00
CC(C)(C)C(=O)OCOP(=O)(OCOC(=O)C(C)(C)C)C(F)(F)c1ccc2sc(C(=O)N[C@H]3CCCC[C@H]4CCC[C@@H](C(=O)N5CC(n6ccnc6)C5)N4C3=O)cc2c1 [Compound 171]	< 5.52
CC(C)(C)C(=O)OCOP(=O)(OCOC(=O)C(C)(C)C)C(F)(F)c1ccc2sc(C(=O)N[C@@]3(C)CCCCC4CC[C@@H](C(=O)N5C[C@H](c6ccccc6)[C@@H](C#N)C5)N4C3=O)cc2c1 (relative stereo) [Compound 151]	6.00 to 7.00
CC(C)(C)C(=O)OCOP(=O)(OCOC(=O)C(C)(C)C)C(F)(F)c1ccc2sc(C(=O)N[C@H]3C[C@@H](O)CC[C@H]4CC[C@@H](C(=O)N5C[C@H](c6ccccc6)[C@@H](C#N)C5)N4C3=O)cc2c1 (single isomer, unassigned) [Compound 185]	6.00 to 7.00
CCCC(=O)SCCOP(=O)(OCCSC(=O)CCC)C(F)(F)c1ccc2sc(C(=O)N[C@H]3CCCC[C@H]4CC[C@@H](C(=O)N(C)c5ccc6nnccc6c5)N4C3=O)cc2c1 [Compound 131]	6.00 to 7.00

Send back pY705-STAT3 in PBMC (Homo sapiens) pIC50 of CC(C)(C)C(=O)SCCOP(=O)(Oc1cccc(C#N)c1)C(F)(F)c1ccc2sc(C(=O)N[C@H]3CCCC[C@H]4CC[C@@H](C(=O)N5C[C@@H](C#N)[C@H](c6ccccc6)C5)N4C3=O)cc2c1 (single isomer, unassigned) [Compound 137] only.
< 5.52

Send back pY705-STAT3 in PBMC (Homo sapiens) pIC50 of CC(C)CC(=O)SCCOP(=O)(OCCSC(=O)CC(C)C)C(F)(F)c1ccc2sc(C(=O)N[C@H]3C[C@@H](O)CC[C@H]4CC[C@@H](C(=O)N5C[C@@H](C#N)[C@H](c6ccccc6)C5)N4C3=O)cc2c1 (single isomer, unassigned) [Compound 135] only.
< 5.52

Send back pY705-STAT3 in PBMC (Homo sapiens) pIC50 of CC(C)(C)C(=O)OCOP(=O)(OCOC(=O)C(C)(C)C)C(F)(F)c1ccc2sc(C(=O)N[C@H]3CCC[C@H]4CC[C@@H](C(=O)N5CC(c6ccccn6)C5)N4C3=O)cc2c1 [Compound 188] only.
> 7.00

Send back pY705-STAT3 in PBMC (Homo sapiens) pIC50 of CC(C)(C)C(=O)OCOP(=O)(OCOC(=O)C(C)(C)C)C(F)(F)c1ccc2sc(C(=O)N[C@H]3CCCC[C@H]4CC[C@@H](C(=O)N5CC(F)(c6ccccc6)C5)N4C3=O)cc2c1 [Compound 174] only.
> 7.00

* * *

Some molecules, each annotated with its measured pIC50.
Assayed Target: pY641-STAT6 in PBMC (Homo sapiens)
Construct: Cryopreserved Peripheral Blood Mononuclear Cells (PBMC) are from AllCells; host or cells: cryopreserved PBMC
Assay Explanation: MSD-pSTAT-PBMC Assay (pSTAT6, IL-4 stimulated)
Assay type: cell-based
Protocol Conditions: STAT6, PBMC, compound 3 hrs, then 1 ng/mL IL-4 for 10 min; Table 115
pIC50: −log10 of the molar value.

Respond only with pIC50 recorded for CCCCOC(=O)[C@H](C)NP(=O)(Oc1cccc2ccccc12)C(F)(F)c1ccc2ccc(C(=O)N[C@H]3CCCC[C@H]4CC[C@@H](C(=O)N5CC(c6ccccc6)CC56CC6)N4C3=O)cc2c1 (some centres unmarked)
5.52 to 6.00

Respond only with pIC50 recorded for CCCOC(=O)[C@H](C)NP(=O)(Oc1ccccc1)[C@@H](F)c1ccc2sc(C(=O)N[C@H]3CCC[C@H]4CC[C@@H](C(=O)N5C[C@H](c6cncc(Cl)c6)[C@@H](C#N)C56CC6)N4C3=O)cc2c1 (single isomer, unassigned) [Compound 367]
6.00 to 7.00

* * *

Some molecules, each annotated with its measured IC50.
Assayed Target: pY641-STAT6 in PBMC (Homo sapiens, UniProt P42226)
Construct: Cryopreserved Peripheral Blood Mononuclear Cells (PBMC) are from AllCells; host or cells: cryopreserved PBMC
Sequence (P42226 whole entry): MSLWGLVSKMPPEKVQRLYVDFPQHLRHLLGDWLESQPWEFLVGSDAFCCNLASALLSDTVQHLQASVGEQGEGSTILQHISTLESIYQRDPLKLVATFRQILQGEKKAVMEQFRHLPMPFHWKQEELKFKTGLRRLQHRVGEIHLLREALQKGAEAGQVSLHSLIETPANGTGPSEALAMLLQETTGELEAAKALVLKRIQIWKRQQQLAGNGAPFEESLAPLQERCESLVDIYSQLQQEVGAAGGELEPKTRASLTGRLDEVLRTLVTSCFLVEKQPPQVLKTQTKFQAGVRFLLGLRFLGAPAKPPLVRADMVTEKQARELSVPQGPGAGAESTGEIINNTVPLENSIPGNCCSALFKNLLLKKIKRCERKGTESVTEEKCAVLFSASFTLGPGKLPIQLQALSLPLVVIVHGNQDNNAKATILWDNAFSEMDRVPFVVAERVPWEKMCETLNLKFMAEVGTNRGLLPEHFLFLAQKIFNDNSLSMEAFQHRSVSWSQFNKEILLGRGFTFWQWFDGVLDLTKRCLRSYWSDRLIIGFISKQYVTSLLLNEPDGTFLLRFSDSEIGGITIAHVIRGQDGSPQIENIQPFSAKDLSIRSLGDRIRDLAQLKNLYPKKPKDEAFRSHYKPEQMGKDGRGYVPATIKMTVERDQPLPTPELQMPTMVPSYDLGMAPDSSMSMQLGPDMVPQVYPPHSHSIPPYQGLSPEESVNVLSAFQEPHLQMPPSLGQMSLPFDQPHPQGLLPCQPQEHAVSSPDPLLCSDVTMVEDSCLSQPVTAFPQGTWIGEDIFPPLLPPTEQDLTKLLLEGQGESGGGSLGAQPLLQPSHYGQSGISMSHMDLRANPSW
Assay Explanation: MSD-pSTAT-PBMC Assay (pSTAT6, IL-4 stimulated)
Assay type: cell-based
Protocol Conditions: STAT6, PBMC, compound 3 hrs, then 1 ng/mL IL-4 for 10 min; Table 115

Molecule	IC50
CCCOC(=O)[C@H](C)NP(=O)(Oc1ccccc1)C(F)c1ccc2ccc(C(=O)N[C@H]3CCCC[C@H]4CC[C@@H](C(=O)N5C[C@H](c6ccn(C)c(=O)c6)CC56CC6)N4C3=O)cc2c1 (stereo partly drawn)	100 to 1000 nM

Respond only with IC50 recorded for C[C@H](NP(=O)(Oc1ccccc1)[C@@H](F)c1ccc2sc(C(=O)N[C@H]3CCC[C@H]4CC[C@@H](C(=O)N5C[C@@H](c6cccnc6)CC56CC6)N4C3=O)cc2c1)C(=O)OCc1nnnn1C (stereo partly drawn)
100 to 1000 nM

Respond only with IC50 recorded for CCCOC(=O)[C@H](C)NP(=O)(Oc1ccccc1)[C@H](F)c1ccc2sc(C(=O)N[C@H]3CC[C@H](N4CCC4)C[C@H]4CC[C@@H](C(=O)N5C[C@H](c6ccccc6)[C@@H](C#N)C56CC6)N4C3=O)cc2c1 (stereo partly drawn)
< 100 nM

Respond only with IC50 recorded for CCCOC(=O)[C@H](C)NP(=O)(Cc1ccc2sc(C(=O)N[C@H]3CCC[C@H]4CC[C@@H](C(=O)N5CCC(c6cccnc6)C5)N4C3=O)cc2c1)Oc1ccccc1 (stereo partly drawn)
100 to 1000 nM

Respond only with IC50 recorded for C[C@H](NP(=O)(Oc1ccccc1)[C@@H](F)c1ccc2sc(C(=O)N[C@H]3CCCC[C@H]4CC[C@@H](C(=O)N5C[C@@H](c6cccnc6)CC56CC6)N4C3=O)cc2c1)C(=O)OCc1ccccn1 (stereo partly drawn)
< 100 nM

Respond only with IC50 recorded for CCCOC(=O)[C@H](C)NP(=O)(Oc1ccccc1)C(F)c1ccc2sc(C(=O)N[C@H]3C[C@H](C)C[C@H]4CC[C@@H](C(=O)N5CC(c6cnccc6F)C5)N4C3=O)cc2c1 (stereo partly drawn)
> 3000 nM

Respond only with IC50 recorded for C[C@H](NP(=O)(Oc1ccccc1)[C@H](F)c1ccc2sc(C(=O)N[C@H]3CCC[C@H]4CC[C@@H](C(=O)N5C[C@H](c6ccccc6)[C@@H](C#N)C56CC6)N4C3=O)cc2c1)C(=O)OC1CC1 (stereo partly drawn)
< 100 nM

Respond only with IC50 recorded for CCCOC(=O)[C@H](C)NP(=O)(Oc1ccccc1)C(F)(F)c1ccc2ccc(C(=O)N[C@H]3CCCC[C@H]4CC[C@@H](C(=O)N5C[C@@H](c6cc[nH]c(=O)c6)CC56CC6)N4C3=O)cc2c1 (stereo partly drawn)
100 to 1000 nM

Respond only with IC50 recorded for CCCOC(=O)[C@H](C)NP(=O)(Oc1ccccc1)C(F)c1ccc2sc(C(=O)N[C@H]3CCCC[C@H]4CC[C@@H](C(=O)N5C[C@@H](C#N)[C@H](c6ccccc6)C5)N4C3=O)cc2c1 (single isomer, unassigned)
< 100 nM

* * *

Some compounds, each annotated with its measured IC50.
Assayed Target: Recombinant STAT3 protein (STAT3 (G127-I722)) (Homo sapiens, UniProt P40763)
Construct: Recombinant STAT3 protein (STAT3 (G127-I722))
Sequence (P40763 127-722): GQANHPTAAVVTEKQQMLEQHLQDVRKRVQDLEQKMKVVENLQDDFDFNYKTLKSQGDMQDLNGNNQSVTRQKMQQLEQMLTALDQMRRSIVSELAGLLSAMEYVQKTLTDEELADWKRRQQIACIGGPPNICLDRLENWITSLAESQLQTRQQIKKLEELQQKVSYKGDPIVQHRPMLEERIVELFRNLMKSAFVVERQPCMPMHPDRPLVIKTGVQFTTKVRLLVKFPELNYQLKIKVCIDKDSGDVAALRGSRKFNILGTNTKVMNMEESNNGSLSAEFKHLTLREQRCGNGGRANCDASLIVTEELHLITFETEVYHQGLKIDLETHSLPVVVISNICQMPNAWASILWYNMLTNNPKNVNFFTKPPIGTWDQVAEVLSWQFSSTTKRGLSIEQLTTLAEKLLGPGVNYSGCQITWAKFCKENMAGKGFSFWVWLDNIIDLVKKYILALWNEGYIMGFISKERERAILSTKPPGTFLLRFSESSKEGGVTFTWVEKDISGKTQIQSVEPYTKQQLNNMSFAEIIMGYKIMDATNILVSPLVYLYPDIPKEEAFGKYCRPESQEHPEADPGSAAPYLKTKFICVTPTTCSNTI
Assay Explanation: STAT3 Fluorescence Polarization (FP) Assay
Format: binding
Protocol Conditions: STAT3 (G127-I722) 25 nM, probe 5-FAM-GpYLPQTV-NH2 2 nM, 45-minute incubation; read-out: STAT3 (FP assay IC50 class)

Compound	Measure Name	Recorded Value
N#C[C@@H]1[C@@H](c2cccnc2)CN(C(=O)[C@@H]2CC[C@@H]3CCC[C@H](NC(=O)c4cc5cc([C@@H](F)P(=O)(O)O)ccc5s4)C(=O)N32)C12CC2 (single isomer, unassigned)	IC50	1000 to 10000 nM
CC(F)(c1ccc2sc(C(=O)N[C@H]3CCC[C@H]4CC[C@@H](C(=O)N5CC(c6cccnc6)C5)N4C3=O)cc2c1)P(=O)(O)O (stereo partly drawn)	IC50	< 100 nM
N#C[C@@H]1CN(C(=O)[C@@H]2CC[C@@H]3CCC[C@H](NC(=O)c4cc5cc(C(F)P(=O)(O)O)ccc5s4)C(=O)N32)C[C@H]1c1ccccc1 (single isomer, unassigned)	IC50	1000 to 10000 nM
O=C(N[C@H]1CCC[C@H]2CC[C@@H](C(=O)N3CC(C4COC4)C3)N2C1=O)c1cc2cc(C(F)(F)P(=O)(O)O)ccc2s1	IC50	100 to 1000 nM
Cn1ccc(N2C(=O)N(C(=O)[C@@H]3CC[C@@H]4CCCC[C@H](NC(=O)c5cc6cc(C(F)P(=O)(O)O)ccc6s5)C(=O)N43)C3(CC3)C2=O)cc1=O (stereo partly drawn)	IC50	1000 to 10000 nM
CC[C@H]1CC[C@H](NC(=O)c2cc3cc(C(F)P(=O)(O)O)ccc3s2)C(=O)N2[C@H](CC[C@H]2C(=O)N2CC(c3cnccc3OC)C2)C1 (stereo partly drawn)	IC50	< 100 nM
O=C(N[C@H]1CCC[C@H]2CC[C@@H](C(=O)N3CC(c4ccc5ncccc5c4F)C3)N2C1=O)c1cc2cc(C(F)P(=O)(O)O)ccc2s1 (stereo partly drawn)	IC50	1000 to 10000 nM
CC(NC(=O)[C@@H]1CC[C@@H]2CCCC[C@H](NC(=O)c3cc4cc(C(F)(F)P(=O)(O)O)ccc4s3)C(=O)N21)c1n[nH]c2ncccc12 (stereo partly drawn)	IC50	100 to 1000 nM
Cc1nccnc1C1CN(C(=O)[C@@H]2CC[C@@H]3CCC[C@H](NC(=O)c4cc5cc(C(F)(F)P(=O)(O)O)ccc5s4)C(=O)N32)C1	IC50	< 100 nM
O=C(N[C@H]1CCCC[C@H]2CC[C@@H](C(=O)NCc3ccc4nccnc4c3)N2C1=O)c1cc2cc(C(F)(F)P(=O)(O)O)ccc2s1	IC50	100 to 1000 nM

Respond only with IC50 recorded for N#CC1CN(C(=O)[C@@H]2C[C@@H](O)[C@H]3C/C=C\C[C@H](NC(=O)c4cc5cc(C(F)(F)P(=O)(O)O)ccc5s4)C(=O)N32)CC1c1ccccc1 (relative stereo)
1000 to 10000 nM

Respond only with IC50 recorded for COC1(c2cccnc2)CN(C(=O)[C@@H]2CC[C@@H]3CCC[C@H](NC(=O)c4cc5cc(C(F)(F)P(=O)(O)O)ccc5s4)C(=O)N32)C1
< 100 nM

Respond only with IC50 recorded for N#Cc1cncc(C2CN(C(=O)[C@@H]3CC[C@@H]4CCC[C@H](NC(=O)c5cc6cc(CP(=O)(O)O)ccc6s5)C(=O)N43)C2)c1
1000 to 10000 nM

Respond only with IC50 recorded for CC(C)C1(c2ccccc2)CN(C(=O)[C@@H]2CC[C@@H]3CCC[C@H](NC(=O)c4cc5cc(C(F)(F)P(=O)(O)O)ccc5s4)C(=O)N32)C1
100 to 1000 nM

Respond only with IC50 recorded for O=C(N[C@H]1CCC[C@H]2CC[C@@H](C(=O)N3CCC(c4cc[nH]n4)CC3)N2C1=O)c1cc2cc(C(F)P(=O)(O)O)ccc2s1 (stereo partly drawn)
1000 to 10000 nM

Respond only with IC50 recorded for COc1nn(C)cc1C1CN(C(=O)[C@@H]2CC[C@@H]3CCC[C@H](NC(=O)c4cc5cc(C(F)P(=O)(O)O)ccc5s4)C(=O)N32)C1 (stereo partly drawn)
100 to 1000 nM

Respond only with IC50 recorded for N#C[C@@H]1CN(C(=O)[C@@H]2CC[C@@H]3CCCC[C@H](NC(=O)c4cc5cc(C(F)P(=O)(O)O)ccc5s4)C(=O)N32)C[C@H]1c1ccccc1 (single isomer, unassigned) [Compound 224]
1000 to 10000 nM

Respond only with IC50 recorded for Cc1cccnc1N1CC[C@@H](NC(=O)[C@@H]2CC[C@@H]3CCCC[C@H](NC(=O)c4cc5cc(C(F)P(=O)(O)O)ccc5s4)C(=O)N32)C1 (stereo partly drawn)
100 to 1000 nM

Respond only with IC50 recorded for Cc1cccnc1N1C[C@H](NC(=O)[C@@H]2CC[C@@H]3CCCC[C@H](NC(=O)c4cc5cc(C(F)P(=O)(O)O)ccc5s4)C(=O)N32)[C@@H](F)C1 (stereo partly drawn)
100 to 1000 nM

Respond only with IC50 recorded for COC[C@@H]1CCN1c1ccncc1C1CN(C(=O)[C@@H]2CC[C@@H]3CCC[C@H](NC(=O)c4cc5cc(CP(=O)(O)O)ccc5s4)C(=O)N32)C1
< 100 nM

Respond only with IC50 recorded for Cn1ncc(C2CN(C(=O)[C@@H]3CC[C@@H]4CCC[C@H](NC(=O)c5cc6cc(C(F)P(=O)(O)O)ccc6s5)C(=O)N43)C2)c1C#N (stereo partly drawn)
1000 to 10000 nM
